# maps each entry to its DiscoveRx β-arrestin2 Ymax (%)
Molecular target: AGTR1 (Homo sapiens, UniProt P30556)
Construct: host or cells: Pathunter CHO-K1 AGTR1 β-arrestin cell line (CHO-K1)
Sequence (P30556 1-359): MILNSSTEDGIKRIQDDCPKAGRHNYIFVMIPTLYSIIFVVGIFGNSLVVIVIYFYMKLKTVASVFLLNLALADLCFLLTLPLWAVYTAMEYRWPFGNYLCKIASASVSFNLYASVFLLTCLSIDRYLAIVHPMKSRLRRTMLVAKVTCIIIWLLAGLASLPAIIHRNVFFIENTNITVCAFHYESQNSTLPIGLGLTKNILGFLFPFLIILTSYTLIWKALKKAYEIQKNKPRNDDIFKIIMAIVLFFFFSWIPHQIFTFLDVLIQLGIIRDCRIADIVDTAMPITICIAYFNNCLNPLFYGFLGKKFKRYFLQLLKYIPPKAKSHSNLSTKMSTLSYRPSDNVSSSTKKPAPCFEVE
Experiment: DiscoveRx β-arrestin2 recruitment assay (enzyme complementation, Pathunter CHO-K1 AGTR1 β-arrestin cell line)
Assay type: cell-based
Settings: DiscoveRx β-arrestin2 recruitment, maximal response
# number then unit; no other words

Solved entries (count: 10):
[[record]]
compound = "CCCCc1ncc(C(=O)NCC2CC2)n1Cc1ccc(-c2cc(-c3ccccc3)ccc2-c2nn[nH]n2)cc1"
result = "39.7%"

[[record]]
compound = "CCc1nc2c(C)cc(C)nc2n1Cc1ccc(-c2cc(-c3ccccc3O)ccc2-c2nn[nH]n2)cc1"
result = "60.3%"

[[record]]
compound = "CCCCc1nc(Cl)c(C(=O)O)n1Cc1ccc(-c2cc(-c3ccc(C(=O)N(C)C)cc3)ccc2-c2noc(=O)[nH]2)cc1"
result = "50.6%"

[[record]]
compound = "CCc1nc2c(C)cc(C)nc2n1Cc1ccc(-c2cc(-c3cccs3)ccc2-c2nn[nH]n2)cc1"
result = "21.4%"

[[record]]
compound = "CCCCc1nc(Cl)c(C(=O)O)n1Cc1ccc(-c2cc(-n3ccc4ccccc43)ccc2-c2nn[nH]n2)cc1"
result = "39.6%"

[[record]]
compound = "CCCCOC(=O)NS(=O)(=O)c1sc(-c2ccccc2)cc1-c1ccc(Cn2c(CC)nc3c(C)cc(C)nc32)cn1"
result = "21.8%"

[[record]]
compound = "CCc1nc2c(C)cc(C)nc2n1Cc1ccc(-c2cc(-c3cccc(C)c3)ccc2-c2nnn[nH]2)nn1"
result = "53.0%"

[[record]]
compound = "CCc1nc2c(C)cc(C)nc2n1Cc1ccc(-c2cc(Oc3nccs3)ccc2-c2nn[nH]n2)cc1"
result = "15.8%"

[[record]]
compound = "CCOc1nc2cccc(C(=O)O)c2n1Cc1ccc(-c2cc(N3CCC[C@@H](C)C3)ccc2-c2nn[nH]n2)cc1"
result = "43.2%"

[[record]]
compound = "CCOc1nc2cccc(C(=O)O)c2n1Cc1ccc(-c2cc(Oc3ccc(F)cc3)ccc2-c2nn[nH]n2)cc1"
result = "61.4%"


Report DiscoveRx β-arrestin2 Ymax (%) on AGTR1 (Homo sapiens, UniProt P30556) for this entry: CCc1nc2c(C)cc(C)nc2n1Cc1ccc(-c2cc(-c3ccccc3C(C)C)ccc2-c2nn[nH]n2)cc1 22.9%

Report DiscoveRx β-arrestin2 Ymax (%) on AGTR1 (Homo sapiens, UniProt P30556) for this entry: CCc1nc2c(C)cc(C)nc2n1Cc1ccc(-c2cc(-c3cccc(OC)c3)ccc2-c2nn[nH]n2)cc1 38.7%

Report DiscoveRx β-arrestin2 Ymax (%) on AGTR1 (Homo sapiens, UniProt P30556) for this entry: CCc1cn(-c2ccc(-c3nnn[nH]3)c(-c3ccc(Cn4c(CC)nc5c(C)cc(C)nc54)cc3)c2)nn1 36.8%

Report DiscoveRx β-arrestin2 Ymax (%) on AGTR1 (Homo sapiens, UniProt P30556) for this entry: CCC1=NC2(CCCC2)C(=O)N1Cc1ccc(-c2cc(-c3cc(C)ccn3)ccc2-c2nn[nH]n2)cc1 66.3%

Report DiscoveRx β-arrestin2 Ymax (%) on AGTR1 (Homo sapiens, UniProt P30556) for this entry: CCCC1=NC2(CCOC2)C(=O)N1Cc1ccc(-c2cc(-c3ccccc3O)ccc2-c2nnn[nH]2)cc1 (single isomer, unassigned) [Example 160] 50.2%

Report DiscoveRx β-arrestin2 Ymax (%) on AGTR1 (Homo sapiens, UniProt P30556) for this entry: CCc1nc2c(C)cc(C)nc2n1Cc1ccc(-c2cc(OCc3ccccc3)ccc2-c2nnn[nH]2)cc1 11.2%

Report DiscoveRx β-arrestin2 Ymax (%) on AGTR1 (Homo sapiens, UniProt P30556) for this entry: CCCCC1=NC2(CCCC2)C(=O)N1Cc1ccc(-c2cc(-c3ccc(CO)cc3)ccc2-c2nn[nH]n2)cc1 17.3%

Report DiscoveRx β-arrestin2 Ymax (%) on AGTR1 (Homo sapiens, UniProt P30556) for this entry: CCOc1nc2cccc(C(=O)O)c2n1Cc1ccc(-c2cc(Oc3cccc(OC)c3)ccc2-c2nn[nH]n2)cc1 30.6%

###

Target: hAT1R (Homo sapiens, UniProt P30556)
Test: cell-based
Conditions: section of the 42nd table ending at r951, example numbering restarts after the DiscoveRx section; read-out: β-arrestin2 EC50
pEC50: −log10 of the molar value.
Answer 0.0 if pEC50 is under 7, and 1.0 if it is 7 or more.

Would you say CCCCC1=NC2(CCOCC2)C(=O)N1Cc1ccc(-c2cc(-c3cccc(C)c3)ccc2-c2nn[nH]n2)cc1 shows pEC50 at minimum 7? 1.0

Would you say CCc1nc2c(C)cc(C)nc2n1Cc1ccc(-c2cc(Oc3cc(F)ccn3)ccc2-c2nn[nH]n2)cc1 shows pEC50 at minimum 7? 1.0

Would you say CCc1nc2c(C)cc(C)nc2n1Cc1ccc(-c2cc(-n3cc(C(C)C)nn3)ccc2-c2nnn[nH]2)cc1 shows pEC50 at minimum 7? 1.0

Would you say CCC1=NC2(CCOC2)C(=O)N1Cc1ccc(-c2cc(-c3ccccc3)ccc2-c2nnn[nH]2)cc1 (single isomer, unassigned) shows pEC50 at minimum 7? 0.0

Would you say CCc1nc2c(C)cc(C)nc2n1Cc1ccc(-c2cc(-n3ccc(C)n3)ccc2-c2nnn[nH]2)cc1 shows pEC50 at minimum 7? 0.0

###

Target: hAT1R (Homo sapiens, UniProt P30556)
Sequence (P30556 1-359): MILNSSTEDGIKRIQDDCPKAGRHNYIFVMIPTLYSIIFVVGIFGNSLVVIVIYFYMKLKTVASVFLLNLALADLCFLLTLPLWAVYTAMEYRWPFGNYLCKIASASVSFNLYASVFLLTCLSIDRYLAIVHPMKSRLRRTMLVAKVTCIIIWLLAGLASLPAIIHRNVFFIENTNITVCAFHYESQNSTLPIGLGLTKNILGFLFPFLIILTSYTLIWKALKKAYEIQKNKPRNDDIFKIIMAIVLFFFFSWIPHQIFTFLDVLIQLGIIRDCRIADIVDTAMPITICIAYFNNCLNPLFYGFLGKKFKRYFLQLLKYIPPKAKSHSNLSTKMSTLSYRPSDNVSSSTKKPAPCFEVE
Experiment: cell-based
Details: agonist mode; read-out: BRET P63 EC50
pEC50: −log10 of the molar value.
# maps each entry to its pEC50

Solved entries (count: 5):
[[record]]
compound = "CCCCc1nc(Cl)c(C(=O)O)n1Cc1ccc(-c2cc(N3CCC[C@@H](C)C3)ccc2-c2nn[nH]n2)cc1"
result = "< 5.00"

[[record]]
compound = "CC1=NC2(CCOCC2)C(=O)N1Cc1ccc(-c2cc(-c3ccccc3)ccc2-c2nn[nH]n2)cc1"
result = "< 5.00"

[[record]]
compound = "CCOc1nc2cccc(C(=O)O)c2n1Cc1ccc(-c2cc(Oc3ccc(F)cc3)ccc2-c2nn[nH]n2)cc1"
result = "< 5.00"

[[record]]
compound = "CCc1nc2c(C)cc(C)nc2n1Cc1cnc(-c2cc(-c3cccc(C)c3)ccc2-c2nnn[nH]2)nc1"
result = "< 4.00"

[[record]]
compound = "CCc1nc2c(C)cc(C)nc2n1Cc1ccc(-c2cc(-c3cccc(C)n3)ccc2-c2nn[nH]n2)cc1"
result = "< 5.00"


Query pEC50 for CCCC1=NC2(CCOC2)C(=O)N1Cc1ccc(-c2cc(-c3cccc(C)c3)ccc2-c2nnn[nH]2)cc1 (single isomer, unassigned) [Example 163] < 5.00

Query pEC50 for CCOc1nc2cccc(C(=O)O)c2n1Cc1ccc(-c2cc(Oc3cccnc3)ccc2-c2nn[nH]n2)cc1 < 5.00

Query pEC50 for CCCCC1=NC2(CCCC2)C(=O)N1Cc1ccc(-c2cc(-c3ccc(C(=O)N(C)C)cc3)ccc2-c2nn[nH]n2)cc1 < 5.00

###

# maps each entry to its pEC50
Target: hAT1R (Homo sapiens, UniProt P30556)
Test: cell-based
Details: Low AT1R Expression; read-out: BRET β-Arrestin2 Low AT1R Expression EC50
pEC50: −log10 of the molar value.

[[record]]
compound = "CCc1nc2c(C)cc(C)nc2n1Cc1ccc(-c2cc(-c3cccc(C)n3)ccc2-c2nn[nH]n2)cc1 [Example 59]"
result = "< 5.00"

[[record]]
compound = "CCCCC1=NC2(CCCC2)C(=O)N1Cc1ccc(-c2cc(-c3ccc(C(=O)N(C)C)cc3)ccc2-c2nn[nH]n2)cc1 [Example 133]"
result = "< 5.00"


Let's switch to this compound now.
Query pEC50 for CCCCC1=NC2(CCCC2)C(=O)N1Cc1ccc(-c2cc(-c3cccc(C)n3)ccc2-c2nn[nH]n2)cc1 [Example 138] < 5.00
